- Assay Overview: chemical genetic growth profiling, strain panel (AID 1159580);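 also: tested at 20 µM; growth read once vehicle control cultures reached saturation at 30 °C; 1 = growth at the plate median or of vehicle wells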
- Measurement Parameters: S. cerevisiae deletion strains, growth OD, locus YIL073C, strain SPO22, hits give low values
In all, about 5,500 compounds went through this assay and about 2,000 (36%) were called active. Another 18% or so got no clear call; they are omitted. The list shows a part of the results.
yes (1) if normalized growth is below 1. no (0) if not; exact matches included in no (0).

Lab log: compare recorded normalized growth with 1; is it strictly lower for NS(=O)(=O)c1cc2c(cc1C(F)(F)F)NC(Cc1ccccc1)NS2(=O)=O (configuration not stated) ?
no (0)

hey, is normalized growth for C[C@@H]1CC[C@@]23CCC4(C)[C@@](C=CC5[C@@]6(C)CC[C@H](O)C(C)(C)C6CC[C@]54C)(OC2=O)C3[C@H]1C (some centres not stated) lower than 1 or not?
no (0)

Lab log: compare recorded normalized growth with 1; is it strictly lower for CC1CCCC(C)N1NC(=O)c1ccc(Cl)c(S(N)(=O)=O)c1 (configuration not stated) ?
yes (1)

Below 1 on normalized growth? Entry COC(=O)C(N)CS (configuration not stated)
yes (1)

Here's an entry: CC1(C)C(O)CC(=O)C2(C)C1CC(O)C1(C)C2CCC2(C)C(c3ccoc3)OC(=O)C3OC321 (configuration not stated) . Is its normalized growth below 1?
no (0)

Confirm or reject: normalized growth of Cc1ccccc1N1C(=O)c2cc(S(N)(=O)=O)c(Cl)cc2NC1C (configuration not stated) lies strictly below 1
no (0)

Please check: normalized growth for N#Cc1c(Cl)cccc1Cl , strictly under 1 or not?
no (0)

Identify whether the molecule COc1cccc2c1CCC1=CC(=O)CC[C@@]12C records normalized growth below 1.
yes (1)

Strictly below 1: is that where normalized growth of CC1(C)S[C@@H]2C(N3C(=O)[C@@H](c4ccccc4)NC3(C)C)C(=O)N2[C@H]1C(=O)O (some centres not stated) sits?
no (0)

Here's an entry: NC[C@H]1O[C@H](O[C@H]2[C@H](O)[C@@H](O[C@H]3O[C@H](CO)[C@@H](O)[C@H](N)[C@H]3O)[C@H](N)C[C@@H]2N)[C@H](N)[C@@H](O)[C@@H]1O . Is its normalized growth below 1?
yes (1)

Confirm or reject: normalized growth of COc1cc(O)c2c(=O)cc(-c3ccc(OC)c(-c4c(O)cc(O)c5c(=O)cc(-c6ccc(O)cc6)oc45)c3)oc2c1 lies strictly below 1
yes (1)

Does this molecule meet the criterion normalized growth < 1? CC[C@@]1(O)C(=O)OCc2c1cc1n(c2=O)Cc2cc3ccccc3nc2-1
yes (1)

Could you please tell me whether normalized growth recorded for CC1(C)S[C@@H]2[C@H](NC(=O)[C@@H](N)c3ccc(O)cc3)C(=O)N2[C@H]1C(=O)O is less than 1?
no (0)

Input CC1(C)S[C@@H]2[C@H](NC(=O)C(C(=O)O)c3ccccc3)C(=O)N2[C@H]1C(=O)O (some centres not stated) ; condition: normalized growth strictly below 1. Does it hold?
no (0)

----------
- Assay Overview: chemical genetic growth profiling, strain panel (AID 1159580)
- Measurement Parameters: S. cerevisiae deletion strains, growth OD, locus YNL224C, strain SQS1, hits give low values
Hit rate of the full screen: of about 5,500 compounds, about 2,000 (36%) were called active. Not shown: some 18% with an inconclusive outcome. The list shows a part of the results.
Reported normalized growth by item:
Respond numerically, and do not add a unit to the figure.

Entry COc1ccccc1N1CCN(CCN(C(=O)c2ccc(F)cc2)c2ccccn2)CC1 : reported normalized growth = ?
1

Please give the measured normalized growth for this compound: O=C1CC2(CCCC2)CC(=O)N1CCCCN1CCN(c2ncccn2)CC1
0.996

Returns the measured normalized growth for the input compound. Input: N[C@H](CCC(=O)NCS(=O)(=O)O)C(=O)O
0.986

----------
- Assay Overview: chemical genetic growth profiling, strain panel (AID 1159580);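 also: tested at 20 µM; growth read once vehicle control cultures reached saturation at 30 °C; 1 = growth at the plate median or of vehicle wells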
- Measurement Parameters: S. cerevisiae deletion strains, growth OD, locus YHR030C, strain SLT2, hits give low values
About 2,000 (36%) of roughly 5,500 compounds were called active. Inconclusive results (about 18%) are left out. The list shows a part of the results.
In this section, each of the molecules is paired with its reported normalized growth.

INSERT INTO results (molecule, quantity_name, result) VALUES
  ('O=[N+]([O-])c1ccc(Oc2c(Cl)cccc2Cl)c(Cl)c1Oc1c(Cl)cccc1Cl', 'normalized growth', '0.956 (inactive)'),
  ('O=C(CCCN1CCN(c2ccccn2)CC1)c1ccc(F)cc1', 'normalized growth', '1.04 (inactive)'),
  ('OC1(c2ccc(Cl)c(C(F)(F)F)c2)CCN(CCCC(c2ccc(F)cc2)c2ccc(F)cc2)CC1', 'normalized growth', '0.952 (inactive)'),
  ('O=C1C(c2ccc(Br)cc2)=C(O)c2ccccc21', 'normalized growth', '0.849 (inactive)'),
  ('CO/N=C1/CC(C)(C)Cc2c(-c3ccn(C(=O)Nc4cccc(Cl)c4)n3)sc(SC)c21', 'normalized growth', '1.16 [resistant] (active)');

Suppose we examine the molecule CC(C)C[C@@H](NC(=O)OCC1c2ccccc2-c2ccccc21)C(=O)O ; what normalized growth value has been reported?
0.966 (inactive)

Can you share its normalized growth? I mean this molecule: O=C(Nc1ccccc1C(=O)O)OCC1c2ccccc2-c2ccccc21
0.366 (active)

What value of measured normalized growth is listed for CC(C)c1cccc(C(C)C)c1O ?
0.94 (inactive)

What normalized growth value was documented for this molecule, O=S(=O)(O)O ?
1.04 (inactive)

Requested read-out: normalized growth. Entry: COC(=O)N/N=C\c1c[n+]([O-])c2ccccc2[n+]1[O-]
1.07 (inactive)

Quick check: normalized growth of CCOC(=O)/C(C#N)=C/N=C(N/N=C\c1c(Cl)cccc1Cl)SC ?
0.687 (active)

For the molecule shown here, CC1(C)Oc2ccc3ccc(=O)oc3c2CC1O (stereo not drawn) , give the reported normalized growth.
1 (inactive)

State the recorded normalized growth for this entry: C/C(=N/NC(N)=S)c1csc(-c2ccccc2)n1
1.46 [resistant] (active)

----------
- Assay Overview: chemical genetic growth profiling, strain panel (AID 1159580);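 also: tested at 20 µM; growth read once vehicle control cultures reached saturation at 30 °C; 1 = growth at the plate median or of vehicle wells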
- Measurement Parameters: S. cerevisiae deletion strains, growth OD, locus YHR079C, strain IRE1 (second series), hits give low values
About 2,000 (36%) of roughly 5,500 compounds were called active. About 18% were inconclusive and are not listed. Some of the results follow.
Listed here are compounds together with their documented normalized growth.
# output: bare number, no unit

Value lookup for normalized growth; key = C[C@@H]1CC[C@@]23CCC4(C)[C@@](C=CC5[C@@]6(C)CC[C@H](O)C(C)(C)C6CC[C@]54C)(OC2=O)C3[C@H]1C (stereo partly drawn)
0.998

Give its normalized growth value. Item: CCn1nc(C(=O)O)c(=O)c2cc3c(cc21)OCO3
1.01

Which normalized growth value belongs to CNC[C@H](O)c1cccc(O)c1 ?
1.02

What normalized growth value was documented for this compound, Oc1ccc2c3c1OC1[C@@H](O)CC[C@@]4(O)[C@@H](C2)N(CC2CCC2)CC[C@]314 (stereo partly drawn) ?
1.02

// lookup normalized growth for CO[C@@H]1C[C@H](O[C@H]2CC[C@]3(C)C4CC[C@]5(C)[C@@H](C6=CC(=O)OC6)CC[C@]5(O)[C@@H]4CC[C@]3(O)C2)O[C@H](C)[C@@H]1O (stereo partly drawn)
1.02

Give the measured normalized growth of Nc1nc(/C(=C/CC(=O)O)C(=O)N[C@@H]2C(=O)N3C(C(=O)O)=CCS[C@H]23)cs1 .
0.998

Suppose we examine the compound COc1cc(O)c2c(=O)cc(-c3ccc(O)cc3)oc2c1 ; what normalized growth value has been reported?
1.01

Entry under review: CC(=O)O[C@@H]1c2c(ccc3ccc(=O)oc23)OC(C)(C)[C@@H]1OC(=O)CC(C)C . Reported normalized growth?
1.01

What value of measured normalized growth is listed for C[C@@H]1CC[C@@]23CCC4(C)[C@@](C=CC5[C@@]6(C)CCC(=O)C(C)(C)C6CC[C@]54C)(OC2=O)C3[C@H]1C (stereo partly drawn) ?
1.02

Please report the recorded normalized growth for CCCCC(=O)O[C@]1(C(=O)CO)[C@@H](C)CC2C3CCC4=CC(=O)C=C[C@]4(C)[C@@]3(F)C(O)C[C@@]21C (stereo partly drawn) .
1

I would be grateful if you could share the reported normalized growth for COc1ccc(-c2cc(=O)c3c(O)c(OC)c(OC)cc3o2)cc1O .
0.978

Quick one: normalized growth for Cc1c(OCC(F)(F)F)ccnc1CS(=O)c1nc2ccccc2[nH]1 (stereo not drawn) ?
0.976

----------
- Assay Overview: chemical genetic growth profiling, strain panel (AID 1159580);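 also: tested at 20 µM; growth read once vehicle control cultures reached saturation at 30 °C; 1 = growth at the plate median or of vehicle wells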
- Measurement Parameters: S. cerevisiae deletion strains, growth OD, locus YLR262C, strain YPT6, hits give low values
The whole screen tested about 5,500 compounds, of which about 2,000 (36%) were called active. Inconclusive results (about 18%) are left out. Some of the results follow.
The entries below come with measured normalized growth values attached.
Please reply with the number alone, leaving off any unit.

Field request: normalized growth | item: Cn1c(SCc2ccccc2)nnc1-c1ccc2ncccc2c1
1.1
